organism: Rattus norvegicus; assay: Open TG-GATES - Regimen: Single; assay type: toxicity, organism-based, Sprague-Dawley; parameters: regimen Single, gender Male, age 6 weeks; conditions: in vivo, po, 0 mg/kg, 3 h, tissue Plasma, route gavage, dose level Control
Field: A/G. Provide a value for each of the compounds that follow.

Before answering, review these 3 worked examples.
| Compound | Measurement Type | Recorded Result |
| --- | --- | --- |
| O=C(O)COc1nn(Cc2ccccc2)c2ccccc12 [BENDAZAC] | A/G | 2.2 |
| CC(=O)Nc1ccc2c(c1)Cc1ccccc1-2 [2-ACETYLAMINOFLUORENE] | A/G | 1.7 |
| CC[C@@H](CO)NCCN[C@@H](CC)CO [ETHAMBUTOL] | A/G | 1.2 |

// below: A/G requested for another compound
Ask | Consider the compound CCN(CC)N=O [N-NITROSODIETHYLAMINE] and give its measured A/G.
Reply | 1.6

All figures here come from ChEMBL document CHEMBL3885861.
